Target: Mineralocorticoid receptor (Homo sapiens, UniProt P08235)
Sequence (P08235 whole entry): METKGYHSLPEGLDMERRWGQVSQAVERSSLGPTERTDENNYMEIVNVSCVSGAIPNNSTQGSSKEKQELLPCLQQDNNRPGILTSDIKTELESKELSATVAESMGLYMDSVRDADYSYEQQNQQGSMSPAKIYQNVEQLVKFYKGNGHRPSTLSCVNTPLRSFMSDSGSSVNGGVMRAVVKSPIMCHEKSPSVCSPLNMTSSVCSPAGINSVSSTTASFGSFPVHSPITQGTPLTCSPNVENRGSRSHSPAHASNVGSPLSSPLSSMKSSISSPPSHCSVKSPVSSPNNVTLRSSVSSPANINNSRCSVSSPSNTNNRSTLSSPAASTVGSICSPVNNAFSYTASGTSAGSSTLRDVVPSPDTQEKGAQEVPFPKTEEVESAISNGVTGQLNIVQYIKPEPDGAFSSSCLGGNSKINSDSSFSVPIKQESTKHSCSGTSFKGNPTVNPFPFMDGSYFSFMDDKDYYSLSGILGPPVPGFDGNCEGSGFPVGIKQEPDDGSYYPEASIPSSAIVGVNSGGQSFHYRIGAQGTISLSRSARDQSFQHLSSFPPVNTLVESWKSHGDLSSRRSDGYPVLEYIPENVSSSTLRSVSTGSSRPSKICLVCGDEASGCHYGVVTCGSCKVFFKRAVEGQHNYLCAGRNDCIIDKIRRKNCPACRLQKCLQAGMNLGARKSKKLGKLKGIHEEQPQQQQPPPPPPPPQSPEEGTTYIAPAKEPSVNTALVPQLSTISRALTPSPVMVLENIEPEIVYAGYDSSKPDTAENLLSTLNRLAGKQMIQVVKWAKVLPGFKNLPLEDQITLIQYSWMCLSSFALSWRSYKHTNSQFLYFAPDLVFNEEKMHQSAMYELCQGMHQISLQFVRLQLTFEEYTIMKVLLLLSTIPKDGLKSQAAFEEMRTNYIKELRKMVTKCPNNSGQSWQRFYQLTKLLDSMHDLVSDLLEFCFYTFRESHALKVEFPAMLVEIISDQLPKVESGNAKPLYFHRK
Below are IC50 measurements against Mineralocorticoid receptor (Homo sapiens, UniProt P08235) drawn from the literature.

Past entries and their recorded results:
- COc1ccc(-c2cncnc2)cc1C(C)(C)CC(O)(Cc1cc2ccncc2[nH]1)C(F)(F)F (configuration not stated): > 2 µM
- COc1cc(CNC(=O)[C@@]2(Cc3ccc4nonc4c3)OC(=O)N([C@H](C)c3ccccc3)C2=O)cc(OC)c1: > 40 µM
- CC(Cc1c[nH]c2ccccc12)NS(=O)(=O)c1c(C(C)C)cc(C(C)C)cc1C(C)C (configuration not stated): > 2 µM
- COc1cc(CNC(=O)C2(Cc3ccccc3)CCN([C@H](C)c3ccccc3)C2=O)cc(OC)c1 (some centres not stated): > 10 µM

Problem: Could you share which IC50 value was measured for CC1(C)C=C(CSCCc2ccccc2)c2cc(-c3cccc(O)c3Cl)ccc2N1 ?
Solution: > 2 µM

Problem: Another molecule to look at: Fc1ccc(-c2c3cccc(C(F)(F)F)c3nn2Cc2ccccc2F)cc1
Solution: > 10 µM

Problem: Another molecule to look at: COc1ccc(F)cc1C(C)(C)CC(O)(CN1CCC(=O)CC1)C(F)(F)F (configuration not stated)
Solution: > 2 µM
